Measured values drawn from ChEMBL document CHEMBL5705896 for this set.

Biological target: UniProt Q8TEK3
Sequence (Q8TEK3 whole entry): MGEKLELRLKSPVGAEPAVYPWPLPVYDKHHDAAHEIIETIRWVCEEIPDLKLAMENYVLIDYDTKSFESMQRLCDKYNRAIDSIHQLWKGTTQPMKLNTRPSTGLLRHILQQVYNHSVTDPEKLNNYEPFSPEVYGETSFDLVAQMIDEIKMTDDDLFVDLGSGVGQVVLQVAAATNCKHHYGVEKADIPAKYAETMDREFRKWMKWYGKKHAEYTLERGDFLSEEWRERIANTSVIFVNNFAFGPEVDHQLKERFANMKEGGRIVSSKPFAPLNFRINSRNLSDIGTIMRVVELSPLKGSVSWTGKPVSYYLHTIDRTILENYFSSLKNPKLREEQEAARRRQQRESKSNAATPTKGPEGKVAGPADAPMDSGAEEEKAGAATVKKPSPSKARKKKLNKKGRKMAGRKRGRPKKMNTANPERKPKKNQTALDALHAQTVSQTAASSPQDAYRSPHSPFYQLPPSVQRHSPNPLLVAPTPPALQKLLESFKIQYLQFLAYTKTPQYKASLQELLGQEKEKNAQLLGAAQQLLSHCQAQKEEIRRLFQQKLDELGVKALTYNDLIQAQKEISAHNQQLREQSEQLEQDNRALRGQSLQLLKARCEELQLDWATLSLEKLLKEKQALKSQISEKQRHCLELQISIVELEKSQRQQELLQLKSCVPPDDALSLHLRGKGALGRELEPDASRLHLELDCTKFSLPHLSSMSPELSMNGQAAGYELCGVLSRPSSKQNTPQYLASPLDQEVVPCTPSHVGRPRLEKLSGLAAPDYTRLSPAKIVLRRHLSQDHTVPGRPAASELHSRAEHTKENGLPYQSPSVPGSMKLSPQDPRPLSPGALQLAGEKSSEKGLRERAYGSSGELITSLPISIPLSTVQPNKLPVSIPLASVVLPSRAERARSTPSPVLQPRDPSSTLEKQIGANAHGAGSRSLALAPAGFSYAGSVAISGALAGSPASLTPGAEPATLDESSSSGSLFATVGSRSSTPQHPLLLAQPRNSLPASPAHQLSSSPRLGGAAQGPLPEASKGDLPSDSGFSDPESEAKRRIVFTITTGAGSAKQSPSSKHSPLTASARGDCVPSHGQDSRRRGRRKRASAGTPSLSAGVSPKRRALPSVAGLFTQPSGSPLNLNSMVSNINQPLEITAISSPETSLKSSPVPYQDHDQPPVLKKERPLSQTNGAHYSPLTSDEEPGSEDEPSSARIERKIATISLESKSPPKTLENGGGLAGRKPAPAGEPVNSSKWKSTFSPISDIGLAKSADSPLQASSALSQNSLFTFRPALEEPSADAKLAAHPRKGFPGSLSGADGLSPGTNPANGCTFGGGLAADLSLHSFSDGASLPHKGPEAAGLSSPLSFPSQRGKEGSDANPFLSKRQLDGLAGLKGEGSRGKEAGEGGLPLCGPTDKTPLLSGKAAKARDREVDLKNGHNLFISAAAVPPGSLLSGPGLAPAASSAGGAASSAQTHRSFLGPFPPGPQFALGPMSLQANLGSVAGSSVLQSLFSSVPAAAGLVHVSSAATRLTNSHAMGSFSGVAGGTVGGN
Assay: Inhibition of DOT1L (unknown origin) using [3H-SAM] as substrate incubated for 1 hr by scintillation proximity assay
pIC50: −log10 of the molar value.
Recorded Endpoint: pIC50

QUERY: Determine from records and report pIC50 for CCCc1cc(C)[nH]c(=O)c1CNC(=O)c1cc(-c2ccc(N3CCN(C(C)C)CC3)nc2)cc2c1cnn2C(C)C
RESULT: < 4.00

* * *

Target: Histone-lysine N-methyltransferase SETD7 (Homo sapiens)
Sequence (Q8WTS6 whole entry): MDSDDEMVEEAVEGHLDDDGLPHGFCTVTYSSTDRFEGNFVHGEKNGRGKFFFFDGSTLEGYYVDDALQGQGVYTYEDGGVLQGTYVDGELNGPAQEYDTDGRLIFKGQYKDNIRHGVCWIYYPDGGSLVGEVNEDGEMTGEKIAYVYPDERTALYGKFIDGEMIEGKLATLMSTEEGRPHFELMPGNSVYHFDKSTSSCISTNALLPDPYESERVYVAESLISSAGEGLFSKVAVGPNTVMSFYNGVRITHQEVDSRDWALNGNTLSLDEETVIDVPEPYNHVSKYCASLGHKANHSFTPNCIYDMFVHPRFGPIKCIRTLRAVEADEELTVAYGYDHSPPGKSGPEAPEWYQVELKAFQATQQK
Recorded Endpoint: IC50

QUERY: Identify the reported IC50 for the following entry. CCCc1cc(C)[nH]c(=O)c1CNC(=O)c1cc(-c2ccc(N3CCN(C(C)C)CC3)nc2)cc2c1cnn2C(C)C
RESULT: > 100 µM
